TARGET_OF_ASSAY: CD40:CD154 interaction (Homo sapiens, UniProt P29965)
Construct: made in house; host or cells: Pichia (CD40-Ig only)
Sequence (P29965 116-261 limits assumed): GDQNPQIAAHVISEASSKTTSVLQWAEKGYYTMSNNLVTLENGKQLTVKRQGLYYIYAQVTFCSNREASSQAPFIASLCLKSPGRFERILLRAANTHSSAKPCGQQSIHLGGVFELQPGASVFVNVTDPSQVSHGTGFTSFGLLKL
METHOD_DESCRIPTION: Binding assay (ELISA): compound binds CD154 and inhibits binding of biotin-CD154 to immobilized CD40-Ig (Example 7)
CONDITION_LABEL: compounds 'shown to have' the IC50 range; assay of Example 7, top concentration 125 μM; read-out: IC50 for CD40:CD154 binding interruption
pIC50: −log10 of the molar value.
MEASUREMENT_LABEL: pIC50

Consider the worked cases shown below.
COMPOUND	ENDPOINT_VALUE
O=C(NCc1cccc(-c2ccccc2)c1)c1cc(-c2cc(C(=O)N[C@H](C(=O)O)C3CCCCC3)nc(C(=O)N3CCC[C@H]3CN3CCCC3)c2)cc(C(=O)N2CCC[C@H]2CN2CCCC2)n1	> 4.30
O=C(NCCC(c1ccccc1)c1ccccc1)c1cc(-c2cc(C(=O)N[C@H](C(=O)O)C3CCCCC3)nc(C(=O)N3CCC[C@H]3CN3CCCC3)c2)cc(C(=O)N2CCC[C@H]2CN2CCCC2)n1	> 4.30
CCC(C)C(NC(=O)c1cc(-c2cc(C(=O)NCc3ccccc3Br)nc(C(=O)N3CCCC3CN3CCCC3)c2)cc(C(=O)N2CCCC2CN2CCCC2)n1)C(=O)O (centres unmarked)	3.90 to 4.30
CCC(C)C(NC(=O)c1cc(-c2cc(C(=O)NC(C)(C)Cc3ccc(F)cc3)nc(C(=O)N3CCCC3CN3CCCC3)c2)cc(C(=O)N2CCCC2CN2CCCC2)n1)C(=O)O (centres unmarked)	< 3.90

Here is the next item to consider.
## Input Report measured pIC50; entry is CCC(C)C(NC(=O)c1cc(-c2cc(C(=O)NCc3cccc(OC)c3OC)nc(C(=O)N3CCCC3CN3CCCC3)c2)cc(C(=O)N2CCCC2CN2CCCC2)n1)C(=O)O (centres unmarked)
## Output < 3.90
